assay: Cytotoxicity against LPS-stimulated Balb/c mouse peritoneal macrophages assessed as cell viability at 25 ug/ml after 24 hrs by MTT assay relative to control; type: cell-based, Peritoneal macrophage cell; details: read-out: Activity
Collected viability at 24 h, 25 ug/ml values appear next to each entry.
// return the numeric value with its unit appended

Input line: Give a short answer stating reported viability at 24 h, 25 ug/ml for O=C1C=CCC(c2ccccc2)O1 (centres undefined) .
Output line: 7.4%

Input line: Give a short answer stating reported viability at 24 h, 25 ug/ml for O=C1C=CCC(COc2ccccc2)O1 (centres undefined) .
Output line: 0%

Input line: Give a short answer stating reported viability at 24 h, 25 ug/ml for C=CCCC1CC=CC(=O)O1 (centres undefined) .
Output line: 2.5%

Input line: Give a short answer stating reported viability at 24 h, 25 ug/ml for C=CCOCC1CC=CC(=O)O1 (centres undefined) .
Output line: 7.7%

----------
experiment: Cytotoxicity against LPS-stimulated Balb/c mouse peritoneal macrophages assessed as cell viability at 12.5 ug/ml after 24 hrs by MTT assay relative to control; format: cell-based, Peritoneal macrophage cell; conditions: read-out: Activity
reported_property: viability at 24 h, 12.5 ug/ml (%)
Return type: number; implicit unit %.

| molecule | viability at 24 h, 12.5 ug/ml (%) |
| --- | --- |
| O=C1C=CCC(c2ccccc2)O1 (centres undefined) | 1 |
| C=CCCC1CC=CC(=O)O1 (centres undefined) | 19.7 |
| C=CCOCC1CC=CC(=O)O1 (centres undefined) | 51.1 |

From here, focus on the item given below.
Input line: Give a short answer stating reported viability at 24 h, 12.5 ug/ml for O=C1C=CCC(COc2ccccc2)O1 (centres undefined) .
Output line: 0

----------
test system: K562; assay: Cytotoxicity against human K562 cells after 72 hrs by MTT assay; type: functional, cell-based; conditions: K562, 72 h
Collected IC50 values appear next to each entry.
Return type: number; implicit unit µg/mL.

Input line: Give a short answer stating reported IC50 for COc1cccc2c1C(=O)c1c(O)c3c(c(O)c1C2=O)C[C@@](O)(C(=O)CO)C[C@@H]3O[C@H]1C[C@H](N)[C@H](O)[C@H](C)O1 .
Output line: 0.26

Input line: Give a short answer stating reported IC50 for CCCCC[C@@H]1CC=CC(=O)O1 .
Output line: 20.2

Input line: Give a short answer stating reported IC50 for O=C1C=CCC(c2ccccc2)O1 (stereo not given) .
Output line: 8.9

Input line: Give a short answer stating reported IC50 for C=CCOCC1CC=CC(=O)O1 (stereo not given) .
Output line: 50

Input line: Give a short answer stating reported IC50 for O=C1C=CCC(COc2ccccc2)O1 (stereo not given) .
Output line: 2.9

----------
system: NCI-H292; experiment: Cytotoxicity against human NCI-H292 cells after 72 hrs by MTT assay; assay type: functional, cell-based; details: NCI-H292, 72 h
reported_property: IC50 (µg/mL)
Return type: number; implicit unit µg/mL.

| compound | assay_system | IC50 / µg/mL |
| --- | --- | --- |
| COc1cccc2c1C(=O)c1c(O)c3c(c(O)c1C2=O)C[C@@](O)(C(=O)CO)C[C@@H]3O[C@H]1C[C@H](N)[C@H](O)[C@H](C)O1 | NCI-H292 | 0.02 |

Input line: Give a short answer stating reported IC50 for O=C1C=CCC(COc2ccccc2)O1 (configuration not stated) .
Output line: 0.8

Input line: Give a short answer stating reported IC50 for C=CCOCC1CC=CC(=O)O1 (configuration not stated) .
Output line: 16.6

Input line: Give a short answer stating reported IC50 for O=C1C=CCC(c2ccccc2)O1 (configuration not stated) .
Output line: 9.1

Input line: Give a short answer stating reported IC50 for CCCCC[C@@H]1CC=CC(=O)O1 .
Output line: 11.3

----------
test: Cytotoxicity against LPS-stimulated Balb/c mouse peritoneal macrophages assessed as cell viability at 3.1 ug/ml after 24 hrs by MTT assay relative to control; assay type: cell-based, Peritoneal macrophage cell; conditions: read-out: Activity
Collected viability at 24 h, 3.1 ug/ml values appear next to each entry.
Return type: number; implicit unit %.

Example entries begin here.
| compound | reported_property | obs_value |
| --- | --- | --- |
| C=CCOCC1CC=CC(=O)O1 (centres undefined) | viability at 24 h, 3.1 ug/ml | 100 |
| O=C1C=CCC(c2ccccc2)O1 (centres undefined) | viability at 24 h, 3.1 ug/ml | 34.5 |
| C=CCCC1CC=CC(=O)O1 (centres undefined) | viability at 24 h, 3.1 ug/ml | 57 |

From here, focus on the item given below.
Input line: Give a short answer stating reported viability at 24 h, 3.1 ug/ml for O=C1C=CCC(COc2ccccc2)O1 (centres undefined) .
Output line: 93

----------
assay: Cytotoxicity against LPS-stimulated Balb/c mouse peritoneal macrophages assessed as cell viability at 6.2 ug/ml after 24 hrs by MTT assay relative to control; assay type: cell-based, Peritoneal macrophage cell; conditions: read-out: Activity
reported_property: viability at 24 h, 6.2 ug/ml
// return the numeric value with its unit appended

Input line: Give a short answer stating reported viability at 24 h, 6.2 ug/ml for C=CCOCC1CC=CC(=O)O1 (centres undefined) .
Output line: 77.2%

Input line: Give a short answer stating reported viability at 24 h, 6.2 ug/ml for C=CCCC1CC=CC(=O)O1 (centres undefined) .
Output line: 45.4%

Input line: Give a short answer stating reported viability at 24 h, 6.2 ug/ml for O=C1C=CCC(COc2ccccc2)O1 (centres undefined) .
Output line: 47.3%

Input line: Give a short answer stating reported viability at 24 h, 6.2 ug/ml for O=C1C=CCC(c2ccccc2)O1 (centres undefined) .
Output line: 30.9%

Source of measurements: ChEMBL document CHEMBL3124852
